protocolDetails: qHTS profiling of Chloroquine Analogs as inhibitors of Plasmodium falciparum (HB3) proliferation
testConditions: P. falciparum HB3 proliferation; series mostly up to 28.7 µM
Activity calls are given as the source filed them. The call rests on the fitted dose curve. *1 amine or outer side, *2 acyl side, *3 side chain or, on linkers, in order; H or OH if unused. Where a SMILES comes first, the peptide text is derived from it. Bridges are numbered along the chain shown (N, C = ends). Roman numbers before positions name the chains, in order. [ ]: non-standard residue; d: D form. Actinocin(9to1) = Cc1c2oc3c(C)ccc(C(=O)[*:1])c3nc-2c(C(=O)[*:2])c(N)c1=O; NMeV = CN[CH](C(=O)O)C(C)C; Sar = CNCC(=O)O
quantityKind: Potency

C[C@@H]1[C@@H](CC(C[C@H]2O[C@@H]3O[C@]4(C)CC[C@@H]5[C@H](C)CC[C@@H]([C@H]2C)[C@@]35OO4)C[S+](=O)([O-])c2ccc(COC(=O)N(C)C)cc2)O[C@@H]2O[C@]3(C)CC[C@H]4[C@H](C)CC[C@@H]1[C@@]24OO3 (some centres undefined) : 6.7 nM (active)
Cc1cccc(C)c1OCC(=O)N[C@@H](Cc1ccccc1)[C@@H](O)C[C@H](Cc1ccccc1)NC(=O)[C@H](C(C)C)N1CCCNC1=O : inactive
Cc1cccc(C)c1NC(=O)C(C)N (centres undefined) : inactive
CNCCC(Oc1ccccc1OC)c1ccccc1 (centres undefined) : 3350 nM (active)
COCC(=O)O[C@]1(CCN(C)CCCc2nc3ccccc3[nH]2)CCc2cc(F)ccc2[C@@H]1C(C)C : 1500 nM (active)
C[C@@H]1CC[C@H]2[C@@H](C)C(=O)O[C@@H]3OC4(C)CC[C@@H]1C32OO4 (some centres undefined) : inactive
Cn1cncc1[C@@](N)(c1ccc(Cl)cc1)c1ccc2c(c1)c(-c1cccc(Cl)c1)cc(=O)n2C : inactive
CCN(CC)CCCC(C)Nc1ccnc2cc(Cl)ccc12 (centres undefined) : inactive
Cc1c2oc3c(C)ccc(C(=O)NC4C(=O)NC(C(C)C)C(=O)N5CCCC5C(=O)N(C)CC(=O)N(C)C(C(C)C)C(=O)OC4C)c3nc-2c(C(=O)NC2C(=O)NC(C(C)C)C(=O)N3CCCC3C(=O)N(C)CC(=O)N(C)C(C(C)C)C(=O)OC2C)c(N)c1=O (centres undefined) (I: TVP[Sar][NMeV] / II: TVP[Sar][NMeV]; ester I:1-I:C, II:1-II:C; linker I:N-II:N via Actinocin(9to1); configuration not given here) : inactive
COc1cc2c(cc1C(F)(F)F)N(C(=O)Nc1cc(F)cc(-c3cccnc3)c1)CC2 : 3350 nM (active)

In: Check the records and state Potency for "O=C(Nc1ccc(Cl)cc1)Nc1ccc(Cl)c(Cl)c1"
Out: 2110 nM (active)

In: Using known records, supply Potency for "COc1cc(C=CC(=O)CC(=O)C=Cc2ccc(O)c(OC)c2)ccc1O"
Out: inactive

----------
protocolDetails: qHTS profiling of Chloroquine Analogs as inhibitors of Plasmodium falciparum (HB3) proliferation
testConditions: P. falciparum HB3 proliferation; series mostly up to 28.7 µM
Activity calls are given as the source filed them. The call rests on the fitted dose curve. Where a SMILES comes first, the peptide text is derived from it. [ ]: non-standard residue; d: D form. Orn = NCCC[C@H](N)C(=O)O
Classes to choose from: t (active), f (inactive)

CC(C)N=C(N)N=C(N)Nc1ccc(Cl)cc1 : t
CNCCCCOc1ccccc1Cc1ccccc1 : f

In: Status in this test for "C[C@H]1c2cccc(O)c2C(O)=C2C(=O)[C@]3(O)C(O)=C(C(N)=O)C(=O)[C@@H](N(C)C)[C@@H]3[C@@H](O)[C@@H]21" ?
Out: t

In: Kindly provide the recorded test outcome for the following compound: "O[C@H](c1cc(C(F)(F)F)nc2c(C(F)(F)F)cccc12)[C@H]1CCCCN1"
Out: f

In: Hello, I am checking results. What call was entered for CC(C)C[C@@H]1NC(=O)[C@H](CCCN)NC(=O)[C@H](C(C)C)NC(=O)[C@@H]2CCCN2C(=O)[C@@H](Cc2ccccc2)NC(=O)[C@H](CC(C)C)NC(=O)[C@H](CCCN)NC(=O)[C@H](C(C)C)NC(=O)[C@@H]2CCCN2C(=O)[C@@H](Cc2ccccc2)NC1=O (cyclo(V[Orn]L[dF]PV[Orn]L[dF]P)) ?
Out: f

In: Query: recorded result category for "C#C[C@]1(O)CC[C@@H]2[C@H]3CCC4=CC(=O)CC[C@H]4[C@H]3C(=C)C[C@@]21CC" in this test
Out: t

In: Outcome? "CN1C[C@H](C(=O)N[C@]2(C)O[C@@]3(O)[C@@H]4CCCN4C(=O)[C@H](Cc4ccccc4)N3C2=O)C[C@@H]2c3cccc4[nH]cc(c34)C[C@H]21"
Out: t
